molecular target: Tyrosine-protein kinase ABL1 (Homo sapiens) (UniProt P00519); settings: Compound concentration 20.0 uM, Protein concentration 2.0 uM, Result type QC Liability
Sequence (P00519 whole entry): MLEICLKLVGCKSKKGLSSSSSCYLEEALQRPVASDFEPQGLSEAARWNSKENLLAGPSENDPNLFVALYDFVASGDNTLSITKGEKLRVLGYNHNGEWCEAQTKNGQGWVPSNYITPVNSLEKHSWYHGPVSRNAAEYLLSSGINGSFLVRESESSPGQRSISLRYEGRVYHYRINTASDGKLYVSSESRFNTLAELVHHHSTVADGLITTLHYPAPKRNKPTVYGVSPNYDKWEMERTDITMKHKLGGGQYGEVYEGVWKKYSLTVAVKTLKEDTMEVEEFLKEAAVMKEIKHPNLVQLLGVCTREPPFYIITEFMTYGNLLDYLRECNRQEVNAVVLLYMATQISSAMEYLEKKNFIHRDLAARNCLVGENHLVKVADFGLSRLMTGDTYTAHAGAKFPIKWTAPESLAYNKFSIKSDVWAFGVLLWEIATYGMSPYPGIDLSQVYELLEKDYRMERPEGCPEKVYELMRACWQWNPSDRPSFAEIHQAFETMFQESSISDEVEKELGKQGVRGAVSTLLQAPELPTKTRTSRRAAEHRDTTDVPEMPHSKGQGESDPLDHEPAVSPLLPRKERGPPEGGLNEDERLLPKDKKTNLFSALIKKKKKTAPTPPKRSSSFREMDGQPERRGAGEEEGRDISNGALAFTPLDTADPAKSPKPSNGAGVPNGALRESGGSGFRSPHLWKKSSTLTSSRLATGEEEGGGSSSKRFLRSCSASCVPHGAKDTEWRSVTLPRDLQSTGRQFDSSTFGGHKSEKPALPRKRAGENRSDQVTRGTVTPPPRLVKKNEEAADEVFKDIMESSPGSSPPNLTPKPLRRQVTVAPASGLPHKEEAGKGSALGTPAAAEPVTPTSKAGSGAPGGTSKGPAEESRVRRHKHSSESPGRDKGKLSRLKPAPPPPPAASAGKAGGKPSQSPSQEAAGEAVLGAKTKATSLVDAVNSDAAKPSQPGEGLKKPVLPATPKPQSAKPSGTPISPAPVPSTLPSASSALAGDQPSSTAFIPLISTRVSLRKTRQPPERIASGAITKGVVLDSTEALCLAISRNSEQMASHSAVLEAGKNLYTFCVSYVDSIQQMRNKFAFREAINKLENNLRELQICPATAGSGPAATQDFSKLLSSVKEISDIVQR
Description: Thermal Shift Assay. Domain: start/stop: S229-K512
PARAMETER MEASURED: ΔTm (°C)
Answers are plain numbers, in °C.

Take a look at these entries with their results.
Name the recorded ΔTm of the molecule listed here: `Cc1nc2cccnc2n2c(-c3cc(C(C)(C)O)ncc3Cl)nnc12`
-0.85

Name the recorded ΔTm of the molecule listed here: `CCCS(=O)(=O)N[C@H]1C[C@@H](N(C)c2ncnc3[nH]ccc23)C1`
1.02

Note: attention shifts to another entry.
Name the recorded ΔTm of the molecule listed here: `CC(=O)N(CCN(C)C)c1ccc(N/C(=C2\C(=O)Nc3cc(Cl)ccc32)c2ccccc2)cn1`
8.38

----------
target: Aurora kinase A (Homo sapiens) (UniProt O14965); conditions: Compound concentration 20.0 uM, Protein concentration 2.0 uM, Result type QC Liability
Sequence (O14965 whole entry): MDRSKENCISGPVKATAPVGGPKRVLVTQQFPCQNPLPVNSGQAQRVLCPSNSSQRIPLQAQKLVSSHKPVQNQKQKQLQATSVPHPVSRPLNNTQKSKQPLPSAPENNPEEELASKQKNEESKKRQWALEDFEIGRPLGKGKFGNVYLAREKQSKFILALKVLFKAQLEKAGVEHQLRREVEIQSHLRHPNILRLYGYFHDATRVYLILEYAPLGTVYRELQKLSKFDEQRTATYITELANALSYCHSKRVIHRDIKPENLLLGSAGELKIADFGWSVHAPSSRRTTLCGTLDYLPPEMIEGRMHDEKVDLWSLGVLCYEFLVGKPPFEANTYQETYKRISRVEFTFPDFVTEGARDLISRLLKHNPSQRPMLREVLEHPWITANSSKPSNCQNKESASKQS
Description: Thermal Shift Assay. Domain: start/stop: E122-S403
For each entry below, report its ΔTm value.
One number for each entry, in °C.

Please tell me the measured ΔTm for `COc1cc(-c2cncc(-c3ccc(N4CCN(C(C)C)CC4)cc3)c2C)cc(F)c1C(N)=O` ; system: Aurora kinase A (Homo sapiens) (UniProt O14965).
-0.31

Take each entry in turn and give its ΔTm.
1. COc1ccccc1Nc1nc(-c2nn(Cc3c(F)cc(OCCCO)cc3F)c3ccccc23)ncc1OC
2. CN1CCN(c2ccc(-n3cc(-c4ccncc4OCC4CCNCC4)cn3)cc2)CC1
3. COc1ccc(S(=O)(=O)N2CCOCC2)cc1Nc1ccc2c(n1)N(C1CCN(C)CC1)[C@H](C)C(=O)N2C

1. -0.7
2. -0.52
3. 0

----------
For each entry below, report its ΔTm value.
target: Casein kinase I isoform delta (Homo sapiens) (UniProt P48730); conditions: Compound concentration 20.0 uM, Protein concentration 2.0 uM, Result type QC Liability
Sequence (P48730 whole entry, looked up, canonical isoform): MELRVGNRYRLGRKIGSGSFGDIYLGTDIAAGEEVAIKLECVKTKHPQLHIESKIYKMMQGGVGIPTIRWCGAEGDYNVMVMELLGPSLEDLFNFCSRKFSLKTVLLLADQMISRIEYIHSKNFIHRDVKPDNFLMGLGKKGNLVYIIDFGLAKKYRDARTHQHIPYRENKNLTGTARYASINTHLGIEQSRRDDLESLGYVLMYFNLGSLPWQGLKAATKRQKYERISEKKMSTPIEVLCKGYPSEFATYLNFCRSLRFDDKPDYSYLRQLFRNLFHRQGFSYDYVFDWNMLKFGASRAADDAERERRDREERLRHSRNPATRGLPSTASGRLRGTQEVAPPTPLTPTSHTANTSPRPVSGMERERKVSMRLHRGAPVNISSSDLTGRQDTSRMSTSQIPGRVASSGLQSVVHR
Description: Thermal Shift Assay. Domain: start/stop: M1-K294

Take each entry in turn and give its ΔTm.
1. CCO[C@@H](Cc1ccc(OCCc2ccc(OS(C)(=O)=O)cc2)cc1)C(=O)O
2. CC(C)N(CCCCOCC(=O)O)c1cnc(-c2ccccc2)c(-c2ccccc2)n1

1: -0.31 °C; 2: 0.48 °C

----------
molecular target: Cyclin-dependent kinase 2 (Homo sapiens) (UniProt P24941); details: Compound concentration 20.0 uM, Protein concentration 2.0 uM, Result type QC Liability
Description: Thermal Shift Assay. Domain: start/stop: M1-L298
PARAMETER MEASURED: ΔTm (°C)
Give bare numbers, in °C.

Take a look at these entries with their results.
Name the recorded ΔTm of the compound listed here: `CS(=O)(=O)NCC[C@H](NC(=O)c1cncc2c1cnn2-c1ccc(F)cc1)c1ccnc(S(C)(=O)=O)c1`
-0.17

Name the recorded ΔTm of the compound listed here: `COc1ccc(Br)cc1S(=O)(=O)NC(=O)/C=C/c1cc(Cl)ccc1Cc1ccc2ccccc2c1`
-1.22

Name the recorded ΔTm of the compound listed here: `N#Cc1c(SCc2csc(-c3ccc(Cl)cc3)n2)nc(N2CCCC2)c(C#N)c1-c1ccc(OCCO)cc1`
0.34

Others:
Name the recorded ΔTm of the compound listed here: `COc1ccccc1-c1cc(Nc2cccc(CS(N)(=O)=O)c2)ncn1`
2.08

----------
For each entry below, report its ΔTm value.
target: Glycogen synthase kinase-3 beta (Homo sapiens); conditions: Compound concentration 20.0 uM, Protein concentration 2.0 uM, Result type QC Liability
Description: Thermal Shift Assay. Domain: start/stop: M26-R383
Answers are plain numbers, in °C.

Take a look at these entries with their results.
Name the recorded ΔTm of the compound listed here: NCC1CCC(CNc2nc(NCc3ccccc3OC(F)(F)F)ncc2[N+](=O)[O-])CC1 (stereo not given)
3.29

Name the recorded ΔTm of the compound listed here: `C[C@@H]1CN(CC(=O)N2CC(C)(C)c3nc(CO)c(Cc4ccc(F)cc4)cc32)[C@@H](CN2CCOC[C@H]2C)CN1`
-0.02

Name the recorded ΔTm of the compound listed here: `CN1CCN(c2ccc(Nc3ncc4cc5n(c4n3)C3(CCCCC3)CNC5=O)nc2)CC1`
0.02

Name the recorded ΔTm of the compound listed here: `CCCCOc1c(C(=O)c2c(F)cc(C)cc2F)c[nH]c2nncc1-2`
0.42

Note: attention shifts to another entry.
Name the recorded ΔTm of the compound listed here: `Fc1ccc(-c2nc(-c3c(F)cccc3F)[nH]c2-c2ccncc2)cc1`
7.77

----------
For each entry below, report its ΔTm value.
target: Tyrosine-protein kinase ABL1 (Homo sapiens); conditions: Compound concentration 20.0 uM, Protein concentration 2.0 uM, Result type QC Liability
One number for each entry, in °C.

Take a look at these entries with their results.
Name the recorded ΔTm of the compound listed here: `CNC(=O)c1ccc2c(c1)NC(=O)/C2=C(\Nc1ccc(CN2CCCCC2)cc1)c1ccccc1`
7.98

Name the recorded ΔTm of the compound listed here: `O=C(NCCN1CCOCC1)c1ccc2nn(CCOc3ccc(Cl)cc3)cc2c1`
0.88

Name the recorded ΔTm of the compound listed here: `Cc1cc(=O)oc2cc(NC(=O)[C@H](Cc3ccc(I)cc3)NC(=O)[C@H]3N[C@@H]4CC[C@H]3C4)ccc12`
0

Name the recorded ΔTm of the compound listed here: `O=C(NC1CCNCC1)c1n[nH]cc1NC(=O)c1c(Cl)cccc1Cl`
0.36

Name the recorded ΔTm of the compound listed here: `COc1ccc(-c2cc3c(C)nc(N)nc3n([C@H]3CC[C@H](OCCO)CC3)c2=O)cn1`
0.46

Name the recorded ΔTm of the compound listed here: `O=C1NC(=NCc2cccs2)SC1=Cc1ccc2ncccc2c1`
2.9

Take each entry in turn and give its ΔTm.
1. CS(=O)(=O)NC(=O)CCC/C=C\C[C@H]1C(=O)C[C@@H](O)[C@@H]1/C=C/[C@@H](O)COc1ccccc1
2. Cc1nc2ccccc2c(-c2ccc3c4c(ccnc24)CCO3)c1[C@H](OC(C)(C)C)C(=O)O
3. COCc1nc2cnc3cc(-c4c(C)noc4C)c(OC[C@H]4CCNC4)cc3c2n1[C@H](C)c1ccccc1
4. Nc1ncnc2c1c(COc1cccc(Cl)c1)nn2C1CCOCC1

1: -0.33; 2: -0.44; 3: 0.08; 4: 1.95

----------
target: Cyclin-dependent kinase 2 (Homo sapiens); details: Compound concentration 20.0 uM, Protein concentration 2.0 uM, Result type QC Liability
In plain terms, low ΔTm, meaning strictly below 0.5 °C, gives MET, and everything else gives NOT MET.

I'd appreciate it if you could check whether `O=C(O)CCCN1CCC[C@H]1COc1ccc(Oc2ccc(Cl)cc2)cc1` has ΔTm smaller than 0.5 °C.
MET

I'd appreciate it if you could check whether `O=C(NC[C@@H]1[C@H]2CN(C(=O)OCc3cc(C(F)(F)F)cc(C(F)(F)F)c3)C[C@@H]12)c1ccc2[nH]nnc2c1` has ΔTm smaller than 0.5 °C.
MET

I'd appreciate it if you could check whether COc1cc(C(=O)NCCOCCOCCOCCC(=O)Nc2cccc3c2C(=O)N(C2CCC(=O)NC2=O)C3=O)ccc1Nc1ncc(C(F)(F)F)c(Oc2cccc3c2C(=O)CC3)n1 (configuration not stated) has ΔTm smaller than 0.5 °C.
MET

I'd appreciate it if you could check whether `Cc1ccc(-n2nc(C(C)(C)C)cc2NC(=O)Nc2ccccc2F)cc1` has ΔTm smaller than 0.5 °C.
NOT MET

Others:
I'd appreciate it if you could check whether O=C(O)c1ccc(OCCCc2ccc(OCCCCOC3CCCCC3)cc2)c(C(=O)NC2CCCC(C(=O)O)C2)c1 (configuration not stated) has ΔTm smaller than 0.5 °C.
MET

I'd appreciate it if you could check whether `NC(=O)c1ccccc1Nc1nc(-c2ccc(N3CCOCC3)cc2)cc2ncccc12` has ΔTm smaller than 0.5 °C.
NOT MET

I'd appreciate it if you could check whether `CN1CCC(F)(Cn2cnc(-c3ccc(F)cn3)c2-c2ccnc3[nH]ccc23)CC1` has ΔTm smaller than 0.5 °C.
MET

----------
biological target: Mitogen-activated protein kinase 1 (Homo sapiens) (UniProt P28482); conditions: Compound concentration 20.0 uM, Protein concentration 2.0 uM, Result type QC Liability
Sequence (P28482 whole entry): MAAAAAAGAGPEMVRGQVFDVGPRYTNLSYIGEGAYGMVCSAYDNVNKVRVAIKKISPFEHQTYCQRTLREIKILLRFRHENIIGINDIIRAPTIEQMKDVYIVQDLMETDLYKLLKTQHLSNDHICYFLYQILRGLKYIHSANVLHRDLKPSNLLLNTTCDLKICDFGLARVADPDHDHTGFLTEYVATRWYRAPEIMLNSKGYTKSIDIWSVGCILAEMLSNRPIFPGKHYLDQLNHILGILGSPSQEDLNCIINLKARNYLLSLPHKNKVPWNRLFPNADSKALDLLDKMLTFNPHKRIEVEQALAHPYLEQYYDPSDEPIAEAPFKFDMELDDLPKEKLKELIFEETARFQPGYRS
Description: Thermal Shift Assay. Domain: start/stop: M1-S360
In plain terms, low ΔTm, meaning strictly below 0.3 °C, gives TRUE, and everything else gives FALSE.

// known answers, use as guide
I'd appreciate it if you could check whether `COc1cc2ncnc(Nc3ccc(F)c(Cl)c3)c2cc1OCCN(C)C[C@H](C)O` has ΔTm smaller than 0.3 °C.
FALSE

I'd appreciate it if you could check whether `CC(C)C(=O)N1CCC(c2cn(C)c3ncc(NC(=O)c4cccc(C#N)c4)c(C(F)(F)F)c23)CC1` has ΔTm smaller than 0.3 °C.
FALSE

I'd appreciate it if you could check whether `CCCN1C(=O)c2ccc(Cl)cc2Nc2ncccc21` has ΔTm smaller than 0.3 °C.
TRUE

I'd appreciate it if you could check whether `N#Cc1cccc(-c2c[nH]c3ncnc(N4CCOCC4)c23)c1` has ΔTm smaller than 0.3 °C.
FALSE

I'd appreciate it if you could check whether `Cc1cc(Cn2c(N3CC4(CNC4)C3)nc3cc(Cl)cc(N4CCN(C)CC4)c32)cc(C)c1F` has ΔTm smaller than 0.3 °C.
FALSE

Others:
I'd appreciate it if you could check whether `C=C(F)C(=O)N1CCN(c2nc(OC[C@@H]3CCCN3C)nc3c2CCN(c2cccc4cccc(Cl)c24)C3)C[C@@H]1CC#N` has ΔTm smaller than 0.3 °C.
TRUE

I'd appreciate it if you could check whether `CCn1c(CNC(=O)c2nc(Cl)cnc2N)[n+](CC)c2ccc(C(=O)N(C)CCN(C)C)cc21` has ΔTm smaller than 0.3 °C.
FALSE

I'd appreciate it if you could check whether `Cc1cc2nc(N3CCC(C(=O)NC4CCCC4)CC3)n(C(C)C)c2cc1C` has ΔTm smaller than 0.3 °C.
TRUE

I'd appreciate it if you could check whether `CC(C)(O)CNC(=O)N1C(=O)N(c2cccc(C(F)(F)F)c2)C2=C(C(=O)CC2)[C@@H]1c1ccc(C#N)cc1` has ΔTm smaller than 0.3 °C.
TRUE

I'd appreciate it if you could check whether `CCN1CCN(Cc2ccc(C(=O)Nc3ccc(C)c(Oc4ccc5c(c4)CC(=O)N5)c3)cc2C(F)(F)F)CC1` has ΔTm smaller than 0.3 °C.
TRUE
